tested on: Human PBMCs; test: LPS-mediated cytokine induction in human PBMCs (BioRad Multiplex Cytokine Platform); format: cell-based; conditions: PBMC; human PBMCs, 1 h pirfenidone pretreatment, LPS; optimal expression at 8 hours; read-out: pirfenidone IC50 for IL-1β (LPS-mediated cytokine induction)
assay_readout: IC50

Complete the entry with IC50 for Cc1ccc(=O)n(-c2ccccc2)c1 [pirfenidone, 5-methyl-1-phenyl-2-(1H)-pyridone]
~2500 µM
